I'd appreciate it if you could supply log10 IC50 values for the items below.
biological target: Human immunodeficiency virus type 1 integrase (Human immunodeficiency virus 1, UniProt Q7ZJM1)
Sequence (Q7ZJM1 whole entry): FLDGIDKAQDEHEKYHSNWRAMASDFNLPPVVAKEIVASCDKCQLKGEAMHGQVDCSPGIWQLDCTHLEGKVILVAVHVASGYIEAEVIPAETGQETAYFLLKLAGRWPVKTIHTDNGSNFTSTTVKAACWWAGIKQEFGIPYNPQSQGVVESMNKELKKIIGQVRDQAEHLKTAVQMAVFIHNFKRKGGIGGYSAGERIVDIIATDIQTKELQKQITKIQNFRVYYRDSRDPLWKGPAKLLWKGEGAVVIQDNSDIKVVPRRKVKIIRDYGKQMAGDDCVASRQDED
Values reflect log10 of reported IC50 (µM).

Query: Fill blank: measured log10 IC50 of the compound O=C(O)/C(O)=C/C(=O)c1cc2cc3c(cc2n1Cc1ccccc1)OCO3 is ____.
Response: 0.30

Query: Another compound: CCn1c(C(=O)/C=C(\O)C(=O)O)cc2cc3c(cc21)OCO3
Response: 0.70

Query: Queued: CCn1cc(C(=O)/C=C(\O)C(=O)O)c2ccccc21
Response: 0.48

Query: Same again, this time with Cn1c(C(=O)/C=C(\O)C(=O)O)cc2cc3c(cc21)OCO3
Response: 0.30

Query: Moving on to O=c1oc2ccccc2c(O)c1-c1cccc(-c2c(O)c3ccccc3oc2=O)c1
Response: 1.04

Query: Likewise for CN(C)c1ccc(C(c2c(O)c3ccccc3oc2=O)c2c(O)c3ccccc3oc2=O)cc1 ?
Response: 1.69

Query: Now consider O=c1oc2cc(O)ccc2c(O)c1Cc1c(O)c2ccc(O)cc2oc1=O and answer again.
Response: 1.65

Query: Please do the same for O=c1oc2cc(O)ccc2c(O)c1C(c1ccc(CCc2ccccc2)cc1)c1c(O)c2ccc(O)cc2oc1=O as well.
Response: 0.26

Query: Also need O=c1oc2ccccc2c(O)c1C(c1ccc(OCc2ccccc2)c(OCc2ccccc2)c1)c1c(O)c2ccccc2oc1=O , thanks.
Response: 1.08

Query: Lookup O=c1oc2ccccc2c(O)c1C(c1ccco1)c1c(O)c2ccccc2oc1=O
Response: 2.12

Query: Same lookup for O=c1oc2ccccc2c(O)c1C(c1ccc(O)cc1)c1c(O)c2ccccc2oc1=O , please.
Response: 1.87

Query: Would you kindly repeat that for O=c1oc2ccccc2c(O)c1C(c1ccccc1)c1c(O)c2ccccc2oc1=O ?
Response: 1.58

Query: O=C(O)/C(O)=C/C(=O)c1cn(Cc2ccccc2)c2ccccc12 ?
Response: 0.00

Query: Same read-out for Cn1cc(C(=O)/C=C(\O)C(=O)O)c2ccccc21 ?
Response: 0.30

Query: Ok, now Cn1c(C(=O)/C=C(\O)C(=O)O)cc2ccccc21
Response: 0.78

Query: Also check O=c1oc2cc(O)ccc2c(O)c1C(c1ccc2c(c1)CC=CC2)c1c(O)c2ccc(O)cc2oc1=O
Response: 0.54

Query: Ok, now O=C(O)/C(O)=C/C(=O)c1cc2ccccc2n1Cc1ccccc1
Response: 0.00

Query: Note, next up: O=c1oc2ccccc2c(O)c1Cc1ccc(Cc2c(O)c3ccccc3oc2=O)cc1
Response: 1.84

Query: Try the compound O=c1oc2ccccc2c(O)c1C(c1cccs1)c1c(O)c2ccccc2oc1=O
Response: 2.17

Query: Now this one: O=c1oc2cc(O)ccc2c(O)c1C(c1ccc(C(c2c(O)c3ccc(O)cc3oc2=O)c2c(O)c3ccc(O)cc3oc2=O)cc1)c1c(O)c2ccc(O)cc2oc1=O
Response: 0.48

Query: Same thing, different compound: O=c1oc2ccccc2c(O)c1C(c1cccc(C(c2c(O)c3ccccc3oc2=O)c2c(O)c3ccccc3oc2=O)c1)c1c(O)c2ccccc2oc1=O
Response: 0.08

Query: Moving on to O=c1oc2ccccc2c(O)c1C(c1cnc2c(c1)CC=CC2)c1c(O)c2ccccc2oc1=O
Response: 1.36

Query: Also O=c1oc2ccccc2c(O)c1C(c1ccc(-c2ccccc2)cc1)c1c(O)c2ccccc2oc1=O , if possible.
Response: 1.11

Query: Another compound to look at: CCn1cc(C(=O)/C=C(\O)C(=O)O)c2cc3c(cc21)OCO3
Response: 0.48

Query: Proceed to O=c1oc2ccccc2c(O)c1C(c1ccc2c(c1)CC=CC2)c1c(O)c2ccccc2oc1=O
Response: 1.20
